experiment: In situ solubility of acid addition salts of BL-5111 in water; format: physicochemical; details: room temperature; 10 mg./0.3 ml. water; read-out: Solubility sufficient to provide a solution
QUANTITY_MEASURED: Solubility

get_value(item= COc1cc2nc(N3CCN(C(=O)c4nnc(SC)o4)CC3)nc(N)c2cc1OC , readout=Solubility) returns ≥ 33 mg/mL

----------
experiment: In situ solubility of acid addition salts of BL-5111 in water; assay type: physicochemical; conditions: 10 mg. BL-5111 free base in 0.3 ml. water with excess of the acid; 50° C.
QUANTITY_MEASURED: Solubility 50° C.

Examples from the recorded data:
* COc1cc2nc(N3CCN(C(=O)c4nnc(SC)o4)CC3)nc(N)c2cc1OC [methanesulfonic] | - (insoluble (-))
* COc1cc2nc(N3CCN(C(=O)c4nnc(SC)o4)CC3)nc(N)c2cc1OC [formic] | + (soluble (+))
* COc1cc2nc(N3CCN(C(=O)c4nnc(SC)o4)CC3)nc(N)c2cc1OC [succinic] | + (soluble (+))
* COc1cc2nc(N3CCN(C(=O)c4nnc(SC)o4)CC3)nc(N)c2cc1OC [sulfuric] | - (insoluble (-))
* COc1cc2nc(N3CCN(C(=O)c4nnc(SC)o4)CC3)nc(N)c2cc1OC [phosphoric] | - (insoluble (-))

In the following, a different compound is considered.
get_value(item= COc1cc2nc(N3CCN(C(=O)c4nnc(SC)o4)CC3)nc(N)c2cc1OC [isethionic] , readout=Solubility 50° C.) returns - (insoluble (-))

----------
assay: In situ solubility of acid addition salts of BL-5111 in water; assay type: physicochemical; conditions: 10 mg. BL-5111 free base in 0.3 ml. water with excess of the acid; 50° C.
QUANTITY_MEASURED: Solubility 50° C.

- COc1cc2nc(N3CCN(C(=O)c4nnc(SC)o4)CC3)nc(N)c2cc1OC [hydrobromic]: - (insoluble (-))
- COc1cc2nc(N3CCN(C(=O)c4nnc(SC)o4)CC3)nc(N)c2cc1OC [fumaric]: - (insoluble (-))
- COc1cc2nc(N3CCN(C(=O)c4nnc(SC)o4)CC3)nc(N)c2cc1OC [nitric]: - (insoluble (-))
